meta.source: patent US7157482B2

// values below are reported Ki
- system: MAO-A (Homo sapiens, UniProt P21397)
- Sequence (P21397 whole entry): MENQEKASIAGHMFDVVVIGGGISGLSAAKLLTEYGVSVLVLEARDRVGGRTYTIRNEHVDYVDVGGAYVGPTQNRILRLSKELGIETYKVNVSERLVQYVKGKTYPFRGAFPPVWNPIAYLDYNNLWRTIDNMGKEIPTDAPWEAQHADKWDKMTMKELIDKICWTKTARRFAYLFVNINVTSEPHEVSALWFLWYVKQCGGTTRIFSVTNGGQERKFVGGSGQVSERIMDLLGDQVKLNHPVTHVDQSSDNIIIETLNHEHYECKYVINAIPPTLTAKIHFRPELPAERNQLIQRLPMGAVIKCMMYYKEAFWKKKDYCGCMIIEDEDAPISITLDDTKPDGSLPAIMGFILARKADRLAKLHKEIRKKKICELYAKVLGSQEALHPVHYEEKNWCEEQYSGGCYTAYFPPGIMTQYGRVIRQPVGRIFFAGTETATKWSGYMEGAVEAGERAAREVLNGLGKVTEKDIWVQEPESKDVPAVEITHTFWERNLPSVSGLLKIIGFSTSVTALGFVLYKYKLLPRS
Express it in µM; write the number only.

{"compound": "Cc1cc(-c2ccc(N3C[C@H](Cn4ccnn4)OC3=O)cc2F)on1 [unsubstituted triazole equivalent, reference compound]", "Ki, µM": 6.99}

Fill in the blank: the reported Ki of Cc1cn(C[C@H]2CN(c3ccc(-c4cc(C)no4)c(F)c3)C(=O)O2)nn1 [Example 1] is ____.
58.8
